Taken from patent US20250188176A1.

measurementTarget: canine IL-4RA (construct not given) (canine)
methodDescription: SPR, combinatorial Fab-SASA clone

binder: AHF21191 (Fab, V domains shown, not shown: small tags and cut ends) VH: EVQLVESGGDLVKPGGSLRLSCVASGFTFRDYAMTWVRQAPGKGLQWVSLINGSGGKTYYADAVKGRFTISRDNAKNTLYLQMNSLRAEDTAVYYCAVDRLTKTIRPQYYGLWHWGQGTLVTVSS VL: DIVMTQTPLSLSVSPGETASISCRSSQSLTYSIGYNYLDWYLQKPGQSPQGLIYLGSKRASGVPDRFSGSGSGTDFTLRISRVEANDTGVYYCMQGLQSPLGFGQGTKLEIKR
readoutUnits: pM
Kd: 366
//
binder: AHF21186 (Fab, V domains shown, not shown: small tags and cut ends) VH: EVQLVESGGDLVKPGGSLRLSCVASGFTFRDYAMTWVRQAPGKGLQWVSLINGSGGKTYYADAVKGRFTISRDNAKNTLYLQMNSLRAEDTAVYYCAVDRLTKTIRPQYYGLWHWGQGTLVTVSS VL: DIVMTQTPLSLSVSPGETASISCRSSQSLLYSIGYNYLDWYLQKPGQSPQGLIYLGHKRASGVPDRFSGSGSGTDFTLRISRVEANDTGVYYCMQGLQSPLTFGQGTKLEIKR
readoutUnits: pM
Kd: 485
//
binder: AHF21199 (Fab, V domains shown, not shown: small tags and cut ends) VH: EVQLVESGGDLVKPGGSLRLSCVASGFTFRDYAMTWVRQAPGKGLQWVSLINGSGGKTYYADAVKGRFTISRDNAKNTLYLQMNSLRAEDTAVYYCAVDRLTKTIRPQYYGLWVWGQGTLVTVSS VL: DIVMTQTPLSLSVSPGETASISCRSSQSLTYSIGYNYLDWYLQKPGQSPQGLIYLGHKRASGVPDRFSGSGSGTDFTLRISRVEANDTGVYYCMQGLQSPLGFGQGTKLEIKR
readoutUnits: pM
Kd: 395
//
binder: AHF21200 (Fab, V domains shown, not shown: small tags and cut ends) VH: EVQLVESGGDLVKPGGSLRLSCVASGFTFRDYAMTWVRQAPGKGLQWVSLINGSGGKTYYADAVKGRFTISRDNAKNTLYLQMNSLRAEDTAVYYCAVDRKTKTIRPQYYGLWVWGQGTLVTVSS VL: DIVMTQTPLSLSVSPGETASISCRSSQSLTYSIGYNYLDWYLQKPGQSPQGLIYLGSKRASGVPDRFSGSGSGTDFTLRISRVEANDTGVYYCMQPLQSPLSFGQGTKLEIKR
readoutUnits: pM
Kd: 875
//
binder: AHF21187 (Fab, V domains shown, not shown: small tags and cut ends) VH: EVQLVESGGDLVKPGGSLRLSCVASGFTFRDYAMTWVRQAPGKGLQWVSLINGSGGKTYYADAVKGRFTISRDNAKNTLYLQMNSLRAEDTAVYYCAVDRKTKTIRPQYYGLWVWGQGTLVTVSS VL: DIVMTQTPLSLSVSPGETASISCRSSQSLTYSIGYNYLDWYLQKPGQSPQGLIYLGHKRASGVPDRFSGSGSGTDFTLRISRVEANDTGVYYCMQGLQSPLGFGQGTKLEIKR
readoutUnits: pM
Kd: 769
